Provide the reported pIC50 of each item.
Assay target: human NPY Y5 receptor (Homo sapiens, UniProt Q15761)
Construct: expressed in transfected cells
Sequence (Q15761 whole entry): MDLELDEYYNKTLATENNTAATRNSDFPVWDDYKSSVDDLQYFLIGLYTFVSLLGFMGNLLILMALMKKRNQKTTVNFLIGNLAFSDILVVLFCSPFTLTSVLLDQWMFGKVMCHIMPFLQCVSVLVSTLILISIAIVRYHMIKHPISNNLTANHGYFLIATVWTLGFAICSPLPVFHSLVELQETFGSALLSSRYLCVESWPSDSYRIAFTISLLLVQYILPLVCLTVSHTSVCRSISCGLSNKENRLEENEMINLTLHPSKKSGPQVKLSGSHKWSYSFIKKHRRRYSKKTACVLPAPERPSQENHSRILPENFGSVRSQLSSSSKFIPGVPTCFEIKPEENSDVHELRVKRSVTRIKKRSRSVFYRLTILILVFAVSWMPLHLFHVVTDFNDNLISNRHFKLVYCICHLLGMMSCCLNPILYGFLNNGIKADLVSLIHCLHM
Method notes: cAMP production inhibitory activity in CHO cells
Type: cell-based
Experimental parameters: against 50 nM NPY inhibition of forskolin stimulated cAMP, CHO cells expressing human NPY Y5 receptor
// scale note: pIC50 = -log10(conc_M); give the bare number

Reported pIC50 ( CC(C)(C)S(=O)(=O)NC1CCC(C(=O)Nc2cccc3cc4ccccc4cc23)CC1 (stereo not drawn) ) = 6.76

Sample "C[C@@H]1CN(c2ccc(NC(=O)CCCCNS(=O)(=O)C(C)(C)C)cc2)C[C@H](C)O1" ; pIC50 observed: 7.37

Notebook: "CCCCc1ccc(NC(=O)CCCCNS(=O)(=O)C(C)(C)CC)cc1" , pIC50 read as 8.49

CCCCOc1ccc(NC(=O)C2CCC(NS(=O)(=O)C(C)(C)C)CC2)cn1 (stereo not drawn) yielded pIC50 of 7.41

pIC50 measured on CC(C)S(=O)(=O)NC1CCC(C(=O)Nc2ccc(-c3ncco3)cc2)CC1 (stereo not drawn) = 8.20

For this molecule ( Cc1ccc(NC(=O)C2CCC(NS(=O)(=O)C(C)(C)C)CC2)cc1 (stereo not drawn) ), measured pIC50 is 7.47

Field pIC50 (entry CC(C)NS(=O)(=O)c1cccc(NC(=O)C2CCC(NS(=O)(=O)C(C)(C)C)CC2)c1 (stereo not drawn) ) reads 7.60

Entry "CC(C)(C)S(=O)(=O)NC1CCN(C(=O)Nc2ccc(OC3CCOCC3)cc2)CC1" , pIC50 reported as 7.70

Value of pIC50 reported for the molecule C[C@@H]1C[C@@H](C)CN(c2ccc(NC(=O)C3CCC(NS(=O)(=O)C(C)(C)C)CC3)cc2)C1 (stereo partly drawn) is 8.66

Sure, the documented pIC50 for "CC(C)(C)S(=O)(=O)Nc1ccc(C(=O)Nc2ccc3ccsc3c2)cc1" is 7.77

Record CC(C)(C)S(=O)(=O)NC1CCC(C(=O)Nc2ccc(Oc3ccccc3)cc2)CC1 (stereo not drawn) , field pIC50: 8.08

Reported pIC50 ( CC(C)(C)S(=O)(=O)NC1CCC(C(=O)Nc2ccc(NC(=O)C3CCCCC3)cc2)CC1 (stereo not drawn) ) = 6.00

###

Assay target: human NPY Y5 receptor (Homo sapiens, UniProt Q15761)
Construct: expressed in transfected cells
Method notes: Affinity for NPY Y5 receptor ([125I] peptide YY binding, CHO cell membranes)
Experimental parameters: inhibition of specific [125I] peptide YY binding, membranes of CHO cells expressing NPY Y5 receptor
Excerpt: Experiment 1 Affinity for NPY Y5 Receptor cDNA sequence encoding a human NPY Y5 receptor (WO096/16542) was cloned in the expression vector pME18S (Takebe et al. Mol. Cell. Biol. 8, 8957). The obtained expression vector was transfected into a host CHO cells by using a Lipofect AMINE reagent (Trademark, Gibco BRL Co., Ltd.) according to an instruction protocol to obtain the cells that stably express NPY Y5 receptor. […]
Assay metric: IC50 (nM)
Answer in nM, number only, no unit symbol.

Briefly, IC50 measured for CN1C(=O)c2ccc(NC(=O)CCCCNS(=O)(=O)C(C)(C)C)cc2C1=O [Ia-91] : 4

What the record says about CC(C)S(=O)(=O)NCCCCC(=O)Nc1ccc(N2C[C@@H](C)O[C@@H](C)C2)cc1 [Ia-3] : IC50 is 9.2

// sample CC(C)NC(=O)c1ccc(NC(=O)c2ccc(NS(=O)(=O)C(C)(C)C)cc2)cc1 [Ia-191] , its IC50 was 0.49

Kindly note the recorded IC50 for CCCCc1ccc(NC(=O)CCCCNS(=O)(=O)C(C)C)cc1 [Compound I-7] , which is 3

For this molecule ( CC(C)S(=O)(=O)NC1CCC(C(=O)Nc2ccc(N3C[C@@H](C)O[C@@H](C)C3)c(F)c2)CC1 (some centres unmarked) [Ia-49] ), measured IC50 is 2.6

For record CC(C)(C)S(=O)(=O)NC1CCC(C(=O)Nc2ccc(C3(O)CCOCC3)cc2)CC1 (centres unmarked) [Ia-247] the listed IC50 is 0.79

CC(C)(C)S(=O)(=O)NC1CCC(C(=O)Nc2cccc(C(F)(F)F)c2)CC1 (centres unmarked) [Ia-129] has a reported IC50 of 1.3

Notebook: CCCCOc1ccc(NC(=O)C2CCC(NS(=O)(=O)C(C)(C)C)CC2)cc1O (centres unmarked) [Compound I-166] , IC50 read as 0.37

###

Assay target: human NPY Y5 receptor (Homo sapiens, UniProt Q15761)
Construct: expressed in transfected cells
Method notes: cAMP production inhibitory activity in CHO cells
Assay type: cell-based
Experimental parameters: against 50 nM NPY inhibition of forskolin stimulated cAMP, CHO cells expressing human NPY Y5 receptor
Assay metric: IC50 (nM)
Could you give me the number in nM? Just the number is fine.

Record summary for CC(C)S(=O)(=O)NC1CCC(C(=O)Nc2ccc(-c3ccco3)cc2)CC1 (stereo not shown) : reported IC50 = 8.1

Entry under test: CC(C)(C)S(=O)(=O)Nc1ccc(NC(=O)C2CCC(NS(=O)(=O)C(C)(C)C)CC2)cc1 (stereo not shown) . Its IC50 was 110

The compound listed as CC(C)(C)S(=O)(=O)NC1CCC(C(=O)Nc2ccc3sccc3c2)CC1 (stereo not shown) shows IC50 equal to 13

IC50 measured on CCCCc1ccc(NC(=O)C2CCC(NS(=O)(=O)C(C)(C)C)CC2)cc1 (stereo not shown) [Compound I-25] = 2.6

###

Field: pIC50. Provide a value for each of the compounds that follow.
Assay target: human NPY Y5 receptor (Homo sapiens)
Construct: expressed in transfected cells
Method notes: cAMP production inhibitory activity in CHO cells
Assay type: cell-based
Experimental parameters: against 50 nM NPY inhibition of forskolin stimulated cAMP, CHO cells expressing human NPY Y5 receptor
Units for pIC50: none; it is -log10 of a concentration expressed in mol/L.

So for CC(C)(C)S(=O)(=O)NC1CCC(C(=O)Nc2ccc3c(c2)CCC3=O)CC1 (stereo not shown) , the logged pIC50 turned out to be 7.77

In plain terms, "CC(C)(C)S(=O)(=O)NC1CCN(C(=O)Nc2ccc(C(F)(F)F)cc2)CC1" has a documented pIC50 of 7.55

According to the records, this compound CC(C)(C)S(=O)(=O)NC1CCC(C(=O)Nc2ccc(C3CCCCC3)cc2)CC1 (stereo not shown) displays pIC50 of 8.59

Value of pIC50 reported for the compound CC(C)(C)S(=O)(=O)NC1CCC(C(=O)Nc2ccc(-c3ccco3)cc2)CC1 (stereo not shown) is 8.12

Form field pIC50, entry CC(=O)c1cccc(NC(=O)C2CCC(NS(=O)(=O)C(C)(C)C)CC2)c1 (stereo not shown) : 7.42

Measured pIC50 of CC(C)(C)S(=O)(=O)NC1CCC(C(=O)Nc2ccc(N3CCCCC3=O)cc2)CC1 (stereo not shown) : 6.85

pIC50 in this record for CC(C)(C)S(=O)(=O)NC1CCC(C(=O)Nc2ccc(OCC3CC3)cc2)CC1 (stereo not shown) : 8.27

In plain terms, CC(C)(C)NC(=O)c1ccc(NC(=O)C2CCC(NS(=O)(=O)C(C)(C)C)CC2)cc1 (stereo not shown) has a documented pIC50 of 7.22

Value of pIC50 reported for the compound CC(C)(C)S(=O)(=O)NC1CCC(C(=O)Nc2ccc(N3CCCC3=O)cc2)CC1 (stereo not shown) is 8.11

Briefly, pIC50 measured for CCCCOc1ccc(NC(=O)CCCCNS(=O)(=O)C(C)CC)cc1 (stereo not shown) : 7.96

Recorded result, CCN(CC)c1ccc(NC(=O)C2CCC(NS(=O)(=O)C(C)(C)C)CC2)cc1 (stereo not shown) , pIC50: 7.87

So for CCCCOc1cccc(NC(=O)C2CCC(NS(=O)(=O)C(C)(C)C)CC2)c1 (stereo not shown) , the logged pIC50 turned out to be 8.51

Lookup result for CC(C)(C)S(=O)(=O)NC1CCC(C(=O)Nc2cccc(OC3CCCCC3)c2)CC1 (stereo not shown) ; measured pIC50: 8.29

Form: compound = CC(C)(C)S(=O)(=O)NC1CCC(C(=O)Nc2cccc(S(=O)(=O)N3CCCCC3)c2)CC1 (stereo not shown) ; pIC50 = 7.92

Reported pIC50 ( C[C@@H]1CN(c2cccc(NC(=O)C3CCC(NS(=O)(=O)C(C)(C)C)CC3)c2)C[C@H](C)O1 (stereo partly shown) ) = 7.82

compound "C[C@@H]1CN(c2ccc(NC(=O)[C@H]3CC[C@H](NS(=O)(=O)C(C)(C)C)CC3)cc2)C[C@H](C)O1" , pIC50 observed: 8.68

The recorded pIC50 for "CC(C)(C)S(=O)(=O)NCCCCC(=O)Nc1ccc(N2CCC(O)(c3ccc(Cl)cc3)CC2)cc1" is 7.85

get_value(item= CC(C)(C)S(=O)(=O)NC1CCC(C(=O)Nc2ccc(N3CCCC3)cc2)CC1 (stereo not shown) , readout=pIC50) returns 8.09

Measured pIC50, CC(C)(C)S(=O)(=O)NC1CCC(C(=O)Nc2ccc(N3CCOCC3)cc2)CC1 (stereo not shown) : 7.42

pIC50 reported for this compound CC(C)(C)S(=O)(=O)NC1CCC(C(=O)Nc2cccc(F)c2)CC1 (stereo not shown) : 7.00

Noted for CC(C)(C)S(=O)(=O)NC1CCC(C(=O)Nc2ccc3ccsc3c2)CC1 (stereo not shown) : its pIC50 reads 8.52

For this compound ( CCCCOc1ccc(NC(=O)C2CCC(NS(=O)(=O)C(C)(C)C)CC2)c([N+](=O)[O-])c1 (stereo not shown) ), measured pIC50 is 7.15

# pIC50 (compound: CC(C)(C)S(=O)(=O)NC1CCC(C(=O)Nc2ccc(Cl)cc2Cl)CC1 (stereo not shown) ) is 7.96

Reported pIC50 of CCCc1ccc(NC(=O)C2CCC(NS(=O)(=O)C(C)(C)C)CC2)cc1 (stereo not shown) : 8.57

Reported pIC50 of CC(C)(C)S(=O)(=O)NC1CCC(C(=O)Nc2cccc(OC(F)(F)C(F)F)c2)CC1 (stereo not shown) : 7.88

Entry CC(C)(C)S(=O)(=O)NC1CCC(C(=O)Nc2nnc(-c3ccc(F)cc3)s2)CC1 (stereo not shown) , pIC50 reported as 8.40

response.value for C[C@@H]1CN(c2ccc(NC(=O)C3CCC(NS(=O)(=O)C(C)(C)C)CC3)cc2)C[C@@H](C)O1 (stereo partly shown) (field: pIC50) = 7.70

Value of pIC50 reported for the compound "CC(C)(C)S(=O)(=O)Nc1ccc(C(=O)Nc2ccc(-c3ccco3)cc2)cc1" is 7.00
